# Test Description: Stability in mouse liver microsomes assessed as parent compound remaining at 1 uM measured after 60 mins in presence of NADPH by LC-MS/MS analysis
# Assay type: ADME, Microsome
# Condition Context: read-out: Stability
# remaining at 1 h, 1 µM per entry
Field format: number, assumed %, no unit text.

Entry Smiles | remaining at 1 h, 1 µM / %
CN1CCCc2c1nc(N1CCC3(CC1)C(=O)N(C)c1cc(N4CCNCC4)cc(F)c13)[nH]c2=O | 63.7
CN1CCCc2c1nc(N1CCC3(CC1)C(=O)N(C)c1cc(N4CCOCC4)cc(F)c13)[nH]c2=O | 46.5
CN1CCC(Oc2cc(F)c3c(c2)N(C)C(=O)C32CCN(c3nc4c(c(=O)[nH]3)CCCN4C)CC2)CC1 | 60.3
CN1CCCc2c1nc(N1CCC3(CC1)C(=O)N(C)c1cc(OCC(=O)O)cc(F)c13)[nH]c2=O | 93.3

Ask | Reported remaining at 1 h, 1 µM, molecule `CN1CCCc2c1nc(N1CCC3(CC1)C(=O)N(CC1COC1)c1cc(F)cc(F)c13)[nH]c2=O` : ____
Reply | 0.3

Ask | Same thing, different molecule: `CN1CCCc2c1nc(N1CCC3(CC1)C(=O)N(CC(F)(F)F)c1cc(F)cc(F)c13)[nH]c2=O`
Reply | 1

Ask | Same thing, different molecule: `CN1CCCc2c1nc(N1CCC3(CC1)CN(CCO)c1cc(F)cc(F)c13)[nH]c2=O`
Reply | 0.2

Ask | Same thing, different molecule: `C[C@@H]1CN(c2cc(F)c3c(c2)N(C)C(=O)C32CCN(c3nc4c(c(=O)[nH]3)CCCN4C)CC2)C[C@H](C)N1`
Reply | 82.7

Ask | Same thing, different molecule: `CN(C)c1cc(F)c2c(c1)N(C)C(=O)C21CCN(c2nc3c(c(=O)[nH]2)CCCN3C)CC1`
Reply | 1.8

Ask | Same thing, different molecule: `CS(=O)(=O)c1ccc(-c2nnc(/C=C/c3nnc(-c4ccc(C#N)cc4)o3)n2-c2ccccc2Cl)nc1`
Reply | 95.8

Ask | Same thing, different molecule: `CN1CCN(CCOc2cc(F)c3c(c2)N(C)C(=O)C32CCN(c3nc4c(c(=O)[nH]3)CCCN4C)CC2)CC1`
Reply | 83.5

Ask | Same thing, different molecule: `CN1CCCc2c1nc(N1CCC3(CC1)C(=O)N(CC(=O)O)c1cc(F)cc(F)c13)[nH]c2=O`
Reply | 100

====

# Test Description: Stability in mouse liver microsomes assessed as parent compound remaining at 1 uM measured after 60 mins in presence of NADPH by LC-MS/MS analysis
# Type: ADME, Microsome
# Condition Context: read-out: Stability
# remaining at 1 h, 1 µM per entry

Here is how some molecules turned out for remaining at 1 h, 1 µM.
Entry Smiles | Recorded Value
CN1CCCc2c1nc(N1CCC3(CC1)C(=O)N(CCO)c1cc(F)cc(F)c13)[nH]c2=O | 2 to 8.5%
C[C@@H]1CN(c2cc(F)c3c(c2)N(C)C(=O)C32CCN(c3nc4c(c(=O)[nH]3)CCCN4C)CC2)C[C@H](C)O1 | 28.7 to 55.9%
CN1CCN(c2cc(F)c3c(c2)N(C)C(=O)C32CCN(c3nc4c(c(=O)[nH]3)CCCN4C)CC2)CC1 | 30.5 to 54.5%

Ask | Reported remaining at 1 h, 1 µM, molecule `O=c1[nH]c(N2CCC3(CC2)CN(CCO)c2cc(F)cc(F)c23)nc2c1CCCC2` : ____
Reply | 3.2 to 18.3%
